- tested_system: Isocitrate dehydrogenase [NADP] cytoplasmic (Homo sapiens, UniProt O75874, R132H)
- assay_info: Inhibition of IDH1 R132H mutant (unknown origin) using alpha-ketoglutarate and NADPH incubated for 60 mins by fluorescence based assay
- Sequence (O75874 2-414 R132H limits assumed): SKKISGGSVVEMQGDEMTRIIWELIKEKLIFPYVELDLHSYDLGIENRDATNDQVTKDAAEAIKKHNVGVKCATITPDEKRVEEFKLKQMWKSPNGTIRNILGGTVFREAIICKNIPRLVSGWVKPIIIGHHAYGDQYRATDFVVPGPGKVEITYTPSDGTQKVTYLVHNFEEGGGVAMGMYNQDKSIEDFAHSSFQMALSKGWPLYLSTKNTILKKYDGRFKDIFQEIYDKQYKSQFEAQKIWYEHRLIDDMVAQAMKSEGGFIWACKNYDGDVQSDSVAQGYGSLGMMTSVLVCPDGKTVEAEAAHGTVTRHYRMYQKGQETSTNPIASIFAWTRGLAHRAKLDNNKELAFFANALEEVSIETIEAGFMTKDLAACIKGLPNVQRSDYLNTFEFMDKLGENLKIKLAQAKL
readout_type: pIC50
Bear in mind: pIC50 is minus log10 of a mol/L concentration; give just that figure.

Look over these answered cases.
1) CC(C)COc1nc(N2CCC[C@@H](CC(=O)O)C2)ccc1C(=O)NC1CCCCC1    4.59
2) CC(C)(C)CCOc1nc(N2CCC[C@@H](CC(=O)O)C2)ccc1C(=O)NC1CCCCC1    5.12
3) CC(C)CCOc1nc(N2C[C@@H]3[C@H](C2)[C@H]3C(=O)O)ccc1C(=O)Nc1ccc(O)cc1    5.30
4) CC(C)CCOc1nc(Nc2coc(C(=O)O)n2)ccc1C(=O)NC1C2CC3CC1CC(O)(C3)C2 (stereo not drawn)    4.68
5) CC(C)CCOc1nc(N2C[C@@H]3[C@H](C2)[C@H]3C(=O)O)ccc1C(=O)N(C)C1CCCCC1    4.77
6) Cc1ccccc1COc1nc(N2C[C@@H]3[C@H](C2)[C@H]3C(=O)O)ccc1C(=O)NC1C2CC3CC1CC(O)(C3)C2 (stereo partly drawn)    5.35

Find the recorded pIC50 belonging to CC(C)CCOc1nc(Nc2csc(C(=O)O)n2)ccc1C(=O)NC1C2CC3CC1CC(O)(C3)C2 (stereo not drawn) and report it.
6.09

---

Listed compounds paired with reported pIC50
- tested_system: Isocitrate dehydrogenase [NADP] cytoplasmic (Homo sapiens, UniProt O75874, R132H)
- assay_info: Allosteric inhibition of IDH1 R132H mutant (unknown origin) expressed in HEK293T cells assessed as reduction in 2-HG production incubated for 48 hrs by LC-MS/MS analysis
- Format: cell-based
Note on units: pIC50 is unitless, being -log10 of a concentration expressed in mol/L.

I'd like to know its pIC50. The compound in question is CC(C)CCOc1nc(N2CCC[C@@H](CC(=O)O)C2)ccc1C(=O)NC1C2CC3CC1CC(O)(C3)C2 (some centres undefined)
5.07

Consider the compound shown here: O=C(O)C[C@@H]1CCCN(c2ccc(C(=O)NC3CCCCC3)c(OCc3ccccc3F)n2)C1 What is its recorded pIC50?
4.80

Value lookup for pIC50; key = CC(C)CCOc1nc(N2C[C@@H]3[C@H](C2)[C@H]3C(=O)O)ccc1C(=O)NC1C2CC3CC1CC(O)(C3)C2 (some centres undefined)
5.64

---

- tested_system: Isocitrate dehydrogenase [NADP] cytoplasmic (Homo sapiens, UniProt O75874, R132H)
- assay_info: Allosteric inhibition of Myc-tagged IDH1 R132H mutant (unknown origin) expressed in human THP-1 cells assessed as inhibition of 2-HG production incubated for 5 days in presence of doxycycline by LC-MS/MS analysis
- Format: cell-based
- Sequence (O75874 whole entry R132H): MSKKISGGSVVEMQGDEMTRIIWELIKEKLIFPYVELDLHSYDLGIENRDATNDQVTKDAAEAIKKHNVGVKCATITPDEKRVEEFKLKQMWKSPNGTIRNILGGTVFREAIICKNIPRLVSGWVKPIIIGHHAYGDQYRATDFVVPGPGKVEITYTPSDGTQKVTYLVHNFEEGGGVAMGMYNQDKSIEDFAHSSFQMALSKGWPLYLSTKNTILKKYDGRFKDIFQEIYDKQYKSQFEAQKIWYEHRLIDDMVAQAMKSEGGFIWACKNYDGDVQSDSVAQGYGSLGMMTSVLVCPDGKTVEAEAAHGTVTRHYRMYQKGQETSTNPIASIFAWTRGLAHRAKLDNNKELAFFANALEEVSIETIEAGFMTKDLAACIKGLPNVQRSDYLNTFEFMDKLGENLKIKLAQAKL
readout_type: pIC50
Expect pIC50 as a plain number equal to -log10 of the molar concentration.

Look up pIC50 for this compound: CC(C)CCOc1nc(N2C[C@@H]3[C@H](C2)[C@H]3C(=O)O)ccc1C(=O)NC1C2CC3CC1CC(O)(C3)C2 (stereo partly specified)
5.72

---

- tested_system: Isocitrate dehydrogenase [NADP] cytoplasmic (Homo sapiens, UniProt O75874, R132H)
- assay_info: Inhibition of IDH1 R132H mutant (unknown origin) using alpha-ketoglutarate and NADPH incubated for 60 mins by fluorescence based assay
pIC50: −log10 of the molar value.
Tag: Yes if measured pIC50 is not below 5, No if it is.

Would you please look over these solved cases?
1. O=C(O)C[C@@H]1CCCN(c2ccc(C(=O)NC3CCCCC3)c(OCCCC(F)(F)F)n2)C1    No
2. CC(C)CCOc1nc(N2C[C@@H]3[C@H](C2)[C@H]3C(=O)O)ccc1C(=O)N[C@@H](C)c1ccccc1    Yes
3. CCC(C)COc1nc(N2CCC[C@@H](CC(=O)O)C2)ccc1C(=O)NC1CCCCC1 (some centres undefined)    No

Quick check: does O=C(O)C[C@@H]1CCCN(c2ccc(C(=O)NC3CCCCC3)c(OCc3ccccc3Cl)n2)C1 have pIC50 greater than or equal to 5?
Yes

Identify whether the reported pIC50 of the following molecule is 5 or greater: CC(C)CCOc1nc(N2C[C@@H]3[C@H](C2)[C@H]3C(=O)O)ccc1C(=O)NC1C2CC3CC(C2)CC1C3 (some centres undefined)
No

Hi team, for CCOc1nc(N2CCC[C@@H](CC(=O)O)C2)ccc1C(=O)NC1CCCCC1 , is the recorded pIC50 at or above 5?
No

---

- tested_system: Isocitrate dehydrogenase [NADP] cytoplasmic (Homo sapiens, UniProt O75874, R132H)
- assay_info: Inhibition of IDH1 R132H mutant (unknown origin) using alpha-ketoglutarate and NADPH incubated for 60 mins by fluorescence based assay
readout_type: IC50 (µM)
Numbers only; they are read as µM.

1) CC(C)CCOc1nc(N2C[C@@H]3[C@H](C2)[C@H]3C(=O)O)ccc1C(=O)NC1CC2CCC1C2 (stereo not given in full)    14

Reported IC50 for O=C(O)C[C@@H]1CCCN(c2ccc(C(=O)NC3CCCCC3)c(OCc3cccc(F)c3)n2)C1 : what is it?
10

Tell me the measured IC50 of O=C(O)C[C@@H]1CCCN(c2ccc(C(=O)NC3CCCCC3)c(OCc3ccc(F)cc3)n2)C1 , please.
8.8

---

- tested_system: Isocitrate dehydrogenase [NADP] cytoplasmic (Homo sapiens, UniProt O75874, R132H)
- assay_info: Inhibition of IDH1 R132H mutant (unknown origin) using alpha-ketoglutarate and NADPH incubated for 60 mins by fluorescence based assay
pIC50: recorded values
When answering, recall that pIC50 equals minus log10 of the concentration in mol/L, and write that number alone.

Answered examples (2):
1. CC(C)CCOc1nc(N2C[C@@H]3[C@H](C2)[C@H]3C(=O)O)ccc1C(=O)NC(C)C1C2CC3CC1CC(O)(C3)C2 (some centres not stated)    6.64
2. CCCC(C)Oc1nc(N2CCC[C@@H](CC(=O)O)C2)ccc1C(=O)NC1CCCCC1 (some centres not stated)    4.92

Kindly review the next molecule as well.
Any idea what pIC50 was measured for C[C@@H](Oc1nc(N2CCC[C@@H](CC(=O)O)C2)ccc1C(=O)NC1CCCCC1)c1ccccc1 ?
5.23

---

- tested_system: 11-beta-hydroxysteroid dehydrogenase 1 (Homo sapiens, UniProt P28845)
- Sequence (P28845 whole entry): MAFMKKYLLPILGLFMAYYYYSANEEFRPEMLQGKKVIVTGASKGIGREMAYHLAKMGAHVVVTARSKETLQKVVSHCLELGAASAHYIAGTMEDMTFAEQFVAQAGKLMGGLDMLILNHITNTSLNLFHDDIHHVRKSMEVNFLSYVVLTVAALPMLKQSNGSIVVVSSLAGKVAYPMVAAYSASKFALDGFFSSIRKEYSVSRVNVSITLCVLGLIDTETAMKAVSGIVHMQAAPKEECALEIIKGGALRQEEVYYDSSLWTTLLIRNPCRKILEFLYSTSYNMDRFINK
- assay_info: Inhibition of active recombinant human N-terminal His-tagged 11-betaHSD1 expressed in Escherichia coli using cortisone, NADPH and glucose-6-phosphate incubated for 2 hrs by glucose-6-phosphate dehydrogenase based coupled HTRF immuno-competitive assay
readout_type: pIC50
Please express pIC50 as -log10 of the molar concentration.

For the molecule shown here, CC(C)CCOc1nc(N2C[C@@H]3[C@H](C2)[C@H]3C(=O)O)ccc1C(=O)NC1C2CC3CC1CC(O)(C3)C2 (stereo partly specified) , give the reported pIC50.
8.05

---

- tested_system: Isocitrate dehydrogenase [NADP] cytoplasmic (Homo sapiens, UniProt O75874, R132H)
- assay_info: Inhibition of IDH1 R132H mutant (unknown origin) using alpha-ketoglutarate and NADPH incubated for 60 mins by fluorescence based assay
pIC50: −log10 of the molar value.
Label rule, in plain words: pIC50 of 5 and up is label 1, under 5 is label 0.

Example cases with answers are listed next.
1. O=C(O)C[C@@H]1CCCN(c2ccc(C(=O)NC3CCCCC3)c(OCCc3ccccc3)n2)C1    label 0
2. CC(C)CCOc1nc(N2C[C@@H]3[C@H](C2)[C@H]3C(=O)O)ccc1C(=O)Nc1ccc(CO)cc1    label 1

Switching to the query record.
Kindly determine if pIC50 recorded for Cc1ccccc1CNc1nc(N2CCC[C@@H](CC(=O)O)C2)ccc1C(=O)NC1CCCCC1 is above or exactly 5.
label 0

---

- tested_system: Isocitrate dehydrogenase [NADP] cytoplasmic (Homo sapiens, UniProt O75874, R132H)
- assay_info: Inhibition of IDH1 R132H mutant (unknown origin) using alpha-ketoglutarate and NADPH incubated for 60 mins by fluorescence based assay
Reported IC50 by item:
Output spec: scalar in µM, unitless text.

Completed entries (count: 2):
1) CC(C)CCOc1nc(N2C[C@@H]3[C@H](C2)[C@H]3C(=O)O)ccc1C(=O)NC[C@H](O)c1ccccc1    3
2) O=C(O)C[C@@H]1CCCN(c2ccc(C(=O)NC3CCCCC3)c(OC3CCCC3)n2)C1    12

# query: IC50 of entry CC(C)CCOc1nc(N2C[C@@H]3[C@H](C2)[C@H]3C(=O)O)ccc1C(=O)Nc1cccc(C(N)=O)c1
6

---

- tested_system: Isocitrate dehydrogenase [NADP] cytoplasmic (Homo sapiens, UniProt O75874, R132H)
- assay_info: Inhibition of IDH1 R132H mutant (unknown origin) using alpha-ketoglutarate and NADPH incubated for 60 mins by fluorescence based assay
pIC50: −log10 of the molar value.
readout_type: pIC50

Worked examples, 3 compounds total:
1) O=C(O)C[C@@H]1CCCN(c2ccc(C(=O)NC3CCCCC3)c(OC3CCC3)n2)C1    < 4.30
2) CC(C)CCOc1nc(N2C[C@@H]3[C@H](C2)[C@H]3C(=O)O)ccc1NC(=O)NC1CCCCC1    < 4.30
3) Cc1ccccc1CSc1nc(N2CCC[C@@H](CC(=O)O)C2)ccc1C(=O)NC1CCCCC1    < 4.30

Give Isocitrate dehydrogenase [NADP] cytoplasmic (Homo sapiens, UniProt O75874, R132H) pIC50 for O=C(O)C[C@@H]1CCCN(c2ccc(C(=O)NC3CCCCC3)c(OCC3CC3)n2)C1
4.52
